Taken from the Human Domainome abundance scans (Beltran et al. 2025).

B1: SAM and SH3 domain-containing protein 1, residues 630 to 700; numbered along this chain, O94885 (parent)
chain: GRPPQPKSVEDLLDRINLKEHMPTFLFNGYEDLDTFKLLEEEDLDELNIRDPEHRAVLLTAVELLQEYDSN

- Variants of: B1
- experimental details: abundance fitness (aPCA) (normalised: wild type 0, dead -1); higher = more abundant; growth selection in yeast, the domain comes from the species named
- test parameters: Homo sapiens
Label True for high-side abundance fitness (at or above -0.6) and False for low-side abundance fitness (below it).

INSERT INTO results (item_sequence, group_label) VALUES
  ('GRPPQPKSVEDLLDRINLKEHMPTFLFNGYEDIDTFKLLEEEDLDELNIRDPEHRAVLLTAVELLQEYDSN', 'True');

Exam item: Has GRPPQPKSVEYLLDRINLKEHMPTFLFNGYEDLDTFKLLEEEDLDELNIRDPEHRAVLLTAVELLQEYDSN a recorded abundance fitness greater than or equal to -0.6?
Marked response: False

Exam item: Has GRPPQPKSYEDLLDRINLKEHMPTFLFNGYEDLDTFKLLEEEDLDELNIRDPEHRAVLLTAVELLQEYDSN a recorded abundance fitness greater than or equal to -0.6?
Marked response: False

Exam item: Has GRPPQPKSVEDLLDRINLKEHMPTFLFNGYEDLDTFKVLEEEDLDELNIRDPEHRAVLLTAVELLQEYDSN a recorded abundance fitness greater than or equal to -0.6?
Marked response: True

Exam item: Has GRPPQPKSVEDLLDRINLKEHMPTFLFNGYEDLDTFKLDEEEDLDELNIRDPEHRAVLLTAVELLQEYDSN a recorded abundance fitness greater than or equal to -0.6?
Marked response: False

Exam item: Has GRPPQPKSVEDLLDRINLKEHMPTFLFNSYEDLDTFKLLEEEDLDELNIRDPEHRAVLLTAVELLQEYDSN a recorded abundance fitness greater than or equal to -0.6?
Marked response: False

Exam item: Has GRPPQPKSVEDLLDRINLKEHMPTFLFNGYEDLDTFKLLEEEDLDEHNIRDPEHRAVLLTAVELLQEYDSN a recorded abundance fitness greater than or equal to -0.6?
Marked response: False

Exam item: Has GRPPQPKSVEDLLDRMNLKEHMPTFLFNGYEDLDTFKLLEEEDLDELNIRDPEHRAVLLTAVELLQEYDSN a recorded abundance fitness greater than or equal to -0.6?
Marked response: True
